Values were extracted from PubChem BioAssay (NCI).

- method.notes: NCI Yeast Anticancer Drug Screen. Data for the cln2 rad14 strain (AID 165);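 note: 0% = growth equal to vehicle treated cultures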
- condition.label: S. cerevisiae cln2 rad14 strain, at 50.0 µM, stronger effect = higher value
- Procedure: Growth inhibition of yeast strains with defined genetic alterations is measured as a screen for potential anti-cancer activity. Selected strains with alterations in DNA damage repair or cell cycle control were exposed to compounds and growth inhibition was measured relative to vehicle treated controls. The strain used in this assay is cln2 rad14
This is part of a sample that, as a whole, favours compounds with a hit. Of some 79,000 tested, about 15% had one in any assay.
Entries annotated with measured growth inhibition
Give the number; % is assumed, so skip it.

compound | growth inhibition (%)
OC1C2CC3C(C2)C13 (centres undefined) | 4.8
CC(C)(C)N=c1n(C(C)(C)C)oc(=O)n1C(C)(C)C | -2.95
CC(O)C(O)C(=O)NN (centres undefined) | 4
COc1ccc(C(=O)Nc2c(N)ncnc2N)cc1 | -3.6
CC(=O)NC(CCCCNC(=O)OC(C)(C)C)C(=O)O (centres undefined) | 7.45
FC(F)(F)C(c1ccc(Cl)cc1)c1ccc(Cl)cc1 | 34.5
O=C(c1cc(O)c(O)c(O)c1)c1ccc(O)c(O)c1O | 5.2
Nc1nc[n+](Cc2ccccc2)c2ncn(Cc3ccccc3)c12 | -9.25
CCCc1cc(=O)oc2c3c(cc(OC(C)C)c12)O[C@H](C)[C@H](C)[C@@H]3O | -1.45
CC(=O)/C(C)=C\C1C(C)=CCCC1(C)C (centres undefined) | -23.3

Record summary for Cc1nc(Cc2n[nH]c(C)n2)n[nH]1 : reported growth inhibition = 15.2

Record summary for CC(C)OC(=O)CCCCCc1ccccc1 : reported growth inhibition = 7.85

Record summary for Cc1c2ccccc2nc(CS(=O)c2ccccc2)[n+]1[O-] (centres undefined) : reported growth inhibition = -36.4

Record summary for N#CCCC(CCC#N)(CCC(CCC#N)(CCC#N)[N+](=O)[O-])[N+](=O)[O-] : reported growth inhibition = -11.6

Record summary for COc1ccc2c(C(=O)O)cc3c4ccccc4ncc3c2c1 : reported growth inhibition = 26.9

Record summary for COC(=O)CCc1c(C)[nH]c(C(=O)OC(C)(C)C)c1C : reported growth inhibition = 14.9

Record summary for Cc1cccc(CNc2ncnc3[nH]ncc23)c1 : reported growth inhibition = -12.6

Record summary for Cc1ccc(S(=O)(=O)NC(Cc2ccc(O)cc2)C(=O)O)cc1 (centres undefined) : reported growth inhibition = -57.2

Record summary for O=[N+]([O-])c1ccc(C2NC(c3ccccc3)c3c(ccc4ccccc34)O2)cc1 (centres undefined) : reported growth inhibition = -1.35

* * *

- method.notes: NCI Yeast Anticancer Drug Screen. Data for the sgs1 mgt1 strain (AID 161);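 note: 0% = growth of cultures given vehicle only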
- condition.label: S. cerevisiae sgs1 mgt1 strain, at 50.0 µM, stronger effect = higher value
This is part of a sample that, as a whole, favours compounds with a hit. Of some 79,000 tested, about 15% had one in any assay.
property.label: growth inhibition (%)
Give the number; % is assumed, so skip it.

Answered examples (3):
molecule | growth inhibition / %
c1cc(N2CCOCC2)ccc1Cc1ccc(N2CCOCC2)cc1 | -4.1
O=C(C[n+]1ccccc1Cl)c1ccc(I)cc1 | 53
Nc1ncnc2c1ncn2-c1ccccc1Cl | -4.95

Record summary for CCCCCCCCCCCCCCCCS(=O)(=O)N/N=C(/C)N(C)c1ccc(OC)cc1 : reported growth inhibition = -6.1

Record summary for CCCCC1(O)CC2CC1C(C)C2(C)C (stereo not given) : reported growth inhibition = -3.45

Record summary for CCOC(=O)Cn1c(C)nc2nn(Cc3ccccc3)cc2c1=O : reported growth inhibition = -36.2

Record summary for COc1ccc2[nH]cc(CC(N)=O)c2c1 : reported growth inhibition = -39.4

Record summary for S=C(Nc1ccc2c(c1)Cc1ccccc1-2)Nc1ccc2c(c1)Cc1ccccc1-2 : reported growth inhibition = -39.7

Record summary for CCOC(=O)CC(C#N)C(C)C(=O)OCC (stereo not given) : reported growth inhibition = 0.4

Record summary for Cc1ccc(CCS(=O)(=O)N=[N+]=[N-])cc1 : reported growth inhibition = -8.95

* * *

Entries annotated with measured growth inhibition
- method.notes: NCI Yeast Anticancer Drug Screen. Data for the sgs1 mgt1 strain (AID 161);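 note: 0% = growth of cultures given vehicle only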
- condition.label: S. cerevisiae sgs1 mgt1 strain, at 50.0 µM, stronger effect = higher value
Compounds without any hit were thinned out: in the full panel of roughly 79,000, 15% have a hit.
Give the number; % is assumed, so skip it.

Answered examples (3):
compound | value.measured
O=CNCC(O)c1ccc2c(c1)[nH]c1ccccc12 (centres undefined) | -1.45
CCc1cc(CN2CCN(CCO)CC2)c(O)c(CN2CCN(CCO)CC2)c1 | -13.2
CC1CC[N-]CC1.CC1CC[N-]CC1.[Cl][Pt+2][Cl] | -17.6

--- query ---
Record summary for CCCCCCCC/C=C\CCCCCCCC(=O)OC : reported growth inhibition = 49.3

* * *

- method.notes: NCI Yeast Anticancer Drug Screen. Data for the mec2-1 strain (AID 157)
- condition.label: S. cerevisiae mec2-1 strain, at 50.0 µM, stronger effect = higher value
About 79,000 compounds went through this panel and 15% of them were active in at least one assay; those are over-represented in the sample as a whole.
property.label: growth inhibition (%)
Give the number; % is assumed, so skip it.

Answered examples (2):
molecule | property.label | value.measured
NC1(C(=O)OCc2ccccc2)CCCC1 | growth inhibition | -5.45
FC(F)(F)C1(C(F)(F)F)OS2(OC(C(F)(F)F)(C(F)(F)F)c3ccccc32)c2ccccc21 | growth inhibition | 3.4

Record summary for COC1OCC(O)C(O)C1OC (configuration not stated) : reported growth inhibition = -13.4

Record summary for OCC(O)C1OC(n2cnc3c(=S)nc[nH]c32)C(O)C1O (configuration not stated) : reported growth inhibition = -6.75

Record summary for C1CCSCCCCSCCCCSCCCCSC1 : reported growth inhibition = 18

Record summary for O=C(Nc1ccccc1Cl)Nc1ccccc1Br : reported growth inhibition = 11.7

Record summary for CC1=C(CCC#N)C(=O)C(CCC#N)C(C)(C)C1 (configuration not stated) : reported growth inhibition = -8.65

* * *

Entries annotated with measured growth inhibition
- method.notes: NCI Yeast Anticancer Drug Screen. Data for the rad50 strain (AID 155);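 note: 0% = growth of vehicle-only cultures of the same strain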
- condition.label: S. cerevisiae rad50 strain growth inhibition; at 50.0 µM; stronger effect = higher value
- Description: Growth inhibition of yeast strains with defined genetic alterations is measured as a screen for potential anti-cancer activity. Selected strains with alterations in DNA damage repair or cell cycle control were exposed to compounds and growth inhibition was measured relative to vehicle treated controls. The strain used in this assay is rad50
The panel holds about 79,000 compounds, 15% with a hit somewhere; the sample as a whole holds those more often.
Give the number; % is assumed, so skip it.

Answered examples (5):
molecule | property.label | quantity.unit | value.measured
CC(C)[Si]1(C(C)C)N([Si](C)(C)F)[Si](C(C)C)(C(C)C)N1[Si](C)(C)F | growth inhibition | % | 7.7
COc1ccc(C(=O)Oc2ccccc2C)cc1 | growth inhibition | % | 5.9
OCCN(CCO)c1ccc(-n2cnc3c(=S)nc[nH]c32)cc1 | growth inhibition | % | -3.1
CCN(CC)C(=N)N | growth inhibition | % | -11.6
COc1ccc(CCNC(=O)c2ccc(CSc3ccc(Cl)cc3)o2)cc1OC | growth inhibition | % | 34.5

Record summary for NC1=NN(c2ccccc2)C(=O)C1C(=O)C(=O)Nc1ccc(Cl)c(Cl)c1 (stereo not given) : reported growth inhibition = -6.4

Record summary for CC(=O)OCC1OC(n2c(=O)n(-c3ccccc3)c(=O)c3ccccc32)C(OC(C)=O)C(OC(C)=O)C1OC(C)=O (stereo not given) : reported growth inhibition = -12.8

Record summary for CC(=O)OC1CCC2(C)C(=CCC3C2CCC2(C)C3CCC23SCCS3)C1 (stereo not given) : reported growth inhibition = 24

Record summary for CCOC(=O)c1c(N)n(-c2ccccc2)c(=O)n(-c2ccccc2)c1=O : reported growth inhibition = -8.85

Record summary for COCc1onc(-c2ccc(OC)cc2)c1-c1ccc(OC)cc1 : reported growth inhibition = 8.25

Record summary for CCC(CC)CC(=O)OC/C(=N\Nc1ccc([N+](=O)[O-])cc1[N+](=O)[O-])c1ccc(-c2ccccc2)cc1 : reported growth inhibition = -30.9

Record summary for O=C1C(O)=C(Br)C(=O)C(O)=C1Br : reported growth inhibition = 6.2

Record summary for CCCCc1c(OC)cc(O)c2c1C(=O)c1[nH]c(C(=O)O)c(O)c(=O)c1C2=O : reported growth inhibition = -16.6

Record summary for c1cc(-c2cc(-c3cc(-c4ccncc4)n[nH]3)[nH]n2)ccn1 : reported growth inhibition = 9.45

Record summary for CCC(SC(CC)(CC(C)C)C(N)=O)C(N)=O (stereo not given) : reported growth inhibition = 4.1

* * *

Entries annotated with measured growth inhibition
- method.notes: NCI Yeast Anticancer Drug Screen. Data for the bub3 strain (AID 167)
- condition.label: S. cerevisiae bub3 mutant strain, at 50.0 µM, stronger effect = higher value
Compounds without any hit were thinned out: in the full panel of roughly 79,000, 15% have a hit. Where a SMILES comes first, the peptide text is derived from it. The star is where a group is joined. Cbz = O=C(OCc1ccccc1)*
Give the number; % is assumed, so skip it.

molecule | value.measured
CC(=O)C(OCCCl)OCCCl | 0.3
O=C(c1ccco1)N(C(=S)N1CCN(c2ccccc2)CC1)C1CCCCC1 | 24.4
CC1(C)C(=O)C(=Cc2ccco2)C1=O | -14.2
CCOC(=O)CCC(NC(=O)C(CCC(=O)OCC)NC(=O)OCc1ccccc1)C(=O)O (configuration not stated) (tested in a mixture with another compound) (Cbz-Glu(OEt)-Glu(OEt)-OH; configuration not given here) | -52.9
NC(=O)Cc1cc2c(cc1CO)OCO2 | -13.3
NC1CSc2ccccc2NC1=O (configuration not stated) | 22.8

Record summary for Cc1cc(=O)n2c(c1)[nH]c1ccccc12 : reported growth inhibition = 1.75

Record summary for O=C1CN(CCN2CCCCC2)CC(=O)N2Cc3ccccc3CN12 : reported growth inhibition = 7.8
